Just for reference, patent US11459325B2 is where these values come from.

System: GBA mutant human fibroblasts GM008760
experimentDescription: Glucosylceramide lowering assay
Format: cell-based
details: 10 μM test compound, 4 days culture; GlcCer (C16:0)/Cer (C16:0) molar ratio of test compound group relative to DMSO control group x100; smaller value = glucosylceramide lowering
Procedure: Glucosylceramide Lowering Assay Using GBA mutant human fibroblasts containing mutated glucosylceramidase, the effect of test compounds on glucosylceramide reduction was evaluated. GBA mutant human fibroblasts GM008760 (Coriel Institute) were seeded in a 96-well multiwell plate at a density of 5,000 cells/100 μL culture solution/well. […]
reportedEndpoint: 10 μM GlcCer/Cer (% of control)

>>> testvalue("Cc1cn(C)c(=O)c2c(C(=O)N3CC4CC4(c4ccc(OC(F)(F)F)cc4)C3)cnn12 (centres unmarked) [Example 310]")
"68 % of control"
>>> testvalue("Cc1cn(C)c(=O)c2c(C(=O)N3CC4CC4(c4ccc(OC(F)(F)F)cc4)C3)cnn12 (centres unmarked) [Example 305]")
"47 % of control"

For each listed entry, give its 10 μM GlcCer/Cer (% of control).
1. Cc1cn(C)c(=O)c2c(C(=O)N3CC4CC4(c4ccc(Cl)cc4)C3)cnn12 (centres unmarked) [Example 307]
2. Cc1cn(C)c(=O)c2c(C(=O)N3CC4CC4(c4ccc(OC(F)(F)F)cc4)C3)cnn12 (centres unmarked) [Example 309]
3. Cc1cn(C)c(=O)c2c(C(=O)N3CC4CC4(c4ccc(Cl)cc4)C3)cn(C)c12 (centres unmarked) [Example 265]

## Output
["65 % of control", "44 % of control", "34 % of control"]

====

Test system: GBA mutant human fibroblasts GM008760
experimentDescription: Glucosylceramide lowering assay
Type: cell-based
details: Homo sapiens, Fibroblast, 96 h; 10 μM test compound, 4 days culture; GlcCer (C16:0)/Cer (C16:0) molar ratio of test compound group relative to DMSO control group x100; smaller value = glucosylceramide lowering
Task for the reader: assign each of the following compounds its reported activity at 10 µM.
One number for each entry, in %.

>>> testvalue("Cc1cn(C)c(=O)c2c(C(=O)NC3(c4ccc(Cl)cc4)CCC3)cn(C)c12")
43

State the recorded activity at 10 µM for every item in the following list.
1. CCCCO[C@H]1CC[C@H](NC(=O)c2nn(C)c3c(C)cn(C)c(=O)c23)CC1
2. Cc1cn(C)c(=O)c2c(C(=O)NC(C)(C)c3ccc(Cl)cc3)cn(C)c12
3. Cc1cn(-c2ccccc2OCC(F)(F)F)c(=O)c2c(C(=O)Nc3ccc(OCC(F)(F)F)nc3)cnn12
4. Cc1cn(-c2ccccc2OCC(F)(F)F)c(=O)c2c(C(=O)Nc3ccc(C(C)(C)O)cc3)cnn12
5. Cc1cn(C)c(=O)c2c(C(=O)N3CC4CC4(c4ccc(F)cc4)C3)cn(C)c12 (centres unmarked)
6. Cc1cn(C)c(=O)c2c(C(=O)N3CCC(Oc4ccc(OC(F)(F)F)cc4)CC3)cnn12
7. Cc1cn(C)c(=O)c2c(C(=O)N[C@H]3CCCC[C@@H]3c3ccccc3)cn(C)c12 (racemic)

## Output
1. 77
2. 44
3. 37
4. 33
5. 56
6. 60
7. 61

====

Tested on: GBA mutant human fibroblasts GM008760
experimentDescription: Glucosylceramide lowering assay
Format: cell-based
details: Homo sapiens, Fibroblast, 96 h; 10 μM test compound, 4 days culture; GlcCer (C16:0)/Cer (C16:0) molar ratio of test compound group relative to DMSO control group x100; smaller value = glucosylceramide lowering
reportedEndpoint: activity at 10 µM
Put down the number, then write its unit next to it.

Previously resolved entries follow.
>>> testvalue("CCCCO[C@H]1CC[C@H](NC(=O)c2cnn3c(C)cn(C)c(=O)c23)CC1")
"75%"
>>> testvalue("COc1ccccc1-n1cc(C)c2ncc(C(=O)Nc3ccc(N4CCOCC4)cc3)n2c1=O")
"54%"
>>> testvalue("Cc1cn(C)c(=O)c2c(C(=O)N3CC4CC4(c4ccc(C(F)(F)F)c(F)c4)C3)cn(C)c12 (centres unmarked)")
"39%"
>>> testvalue("Cc1cn(C)c(=O)c2c(C(=O)N3CCC(Oc4ccc(OC(F)(F)F)cc4)CC3)cn(C)c12")
"27%"
>>> testvalue("Cc1cn(C)c(=O)c2c(C(=O)N3CCC(Oc4cccc(Cl)c4)CC3)cn(C)c12")
"65%"
>>> testvalue("Cn1cc(C(=O)Nc2ccc(N3CCOCC3)cc2)c2c(=O)n(CC#N)ccc21")
"89%"
>>> testvalue("Cc1cn(C)c(=O)c2c(C(=O)NCc3noc(-c4ccc(Cl)cc4)n3)cnn12")
"67%"

Here is another molecule to look at.
Quick note, activity at 10 µM for Cc1cn(C)c(=O)c2c(C(=O)N3CCC(c4ccc(Cl)cc4)CC3)cn(C)c12 landed at 64%
